biological target: NAD-dependent protein deacetylase sirtuin-1 (Homo sapiens) (UniProt Q96EB6); experiment: Activation of human SIRT1 expressed in Escherichia coli BL21 (DE3) assessed as maximum activation of enzyme activity by fluorescence polarization assay
Sequence (Q96EB6 whole entry): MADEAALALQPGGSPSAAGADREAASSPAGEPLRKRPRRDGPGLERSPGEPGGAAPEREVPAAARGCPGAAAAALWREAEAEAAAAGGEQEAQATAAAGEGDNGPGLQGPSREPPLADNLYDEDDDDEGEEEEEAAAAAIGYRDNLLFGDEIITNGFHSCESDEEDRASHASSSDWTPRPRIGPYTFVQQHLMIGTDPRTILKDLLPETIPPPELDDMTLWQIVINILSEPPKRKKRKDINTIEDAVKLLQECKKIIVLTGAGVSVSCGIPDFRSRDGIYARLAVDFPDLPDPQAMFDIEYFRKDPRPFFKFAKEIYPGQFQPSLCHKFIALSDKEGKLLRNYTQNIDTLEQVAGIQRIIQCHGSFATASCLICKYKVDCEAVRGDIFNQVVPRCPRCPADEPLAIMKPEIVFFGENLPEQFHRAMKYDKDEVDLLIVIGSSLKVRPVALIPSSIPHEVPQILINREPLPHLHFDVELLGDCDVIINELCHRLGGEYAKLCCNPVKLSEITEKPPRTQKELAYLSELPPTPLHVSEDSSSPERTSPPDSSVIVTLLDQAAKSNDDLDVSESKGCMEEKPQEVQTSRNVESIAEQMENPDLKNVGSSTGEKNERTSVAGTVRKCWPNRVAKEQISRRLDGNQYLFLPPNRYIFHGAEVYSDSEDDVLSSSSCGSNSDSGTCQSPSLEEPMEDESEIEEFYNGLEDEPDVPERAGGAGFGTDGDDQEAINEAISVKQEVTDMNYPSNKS
Response key: fulfilled means max activation >= 200%; not fulfilled means max activation < 200%.

CN(C)CCNC(=O)c1cc(NC(=O)c2cccc(N(C)C)c2)cc(-c2nc3ncccc3o2)c1    fulfilled
O=C(Nc1ccc(CN2CCNCC2)cc1-c1nc2ccccc2[nH]1)c1cnc2ccccc2n1    fulfilled
COc1ccc(C(=O)Nc2cc(CN3CCNCC3)cc(-c3nc4ncccc4o3)c2)c(OC)c1    fulfilled
COc1ccc(C(=O)Nc2cc(C(=O)NCCN(C)C)cc(-c3nc4ncccc4o3)c2)cc1OC    fulfilled
COc1ccc(C(=O)Nc2cccc(-c3nc4ncccc4[nH]3)c2)c(OC)c1    fulfilled
COc1ccc(C(=O)Nc2cc(CN3CCNCC3)cc(-c3nc4ncccc4o3)c2)cc1OC    fulfilled
COc1cc(C)ccc1C(=O)Nc1ccccc1-c1nc2ncccc2[nH]1    fulfilled
CN(C)c1ccc(C(=O)Nc2ccccc2-c2nc3ncccc3[nH]2)cc1    fulfilled
COc1ccc(C(=O)Nc2cccc(-c3nc4ncccc4o3)c2)cc1OC    fulfilled
COc1ccc(C(=O)Nc2ccccc2-c2nc3ccccc3[nH]2)cc1CN1CCOCC1    fulfilled
COc1cc(C)ccc1C(=O)Nc1ccc(-c2nc3ncccc3[nH]2)cc1    not fulfilled
CN(C)c1cccc(C(=O)Nc2cccc(-c3nc4ncccc4o3)c2)c1    fulfilled
COc1ccc(C(=O)Nc2ccc(-c3nc4ncccc4[nH]3)cc2)cc1OC    not fulfilled
